Consider the following compounds; for each one, report its Activity.
# System: A-431
# measurement-protocol: Induction of cell cycle arrest in human A-431 cells assessed as accumulation of cells at S phase at 100 nM incubated for 24 hrs by RNase/PI staining based flow cytometry analysis (reference value: 43.35%)
# Type: functional
One number for each entry, in %.

// worked examples, Activity included
Just so you know, measured Activity for COc1ccc(-c2nccc3c(-c4ccccc4)c[nH]c23)c(OC)c1 came out at 10.27

Just so you know, measured Activity for CC(=O)c1ccc(-c2nccc3c(-c4ccccc4)c[nH]c23)cc1 came out at 20.32

Just so you know, measured Activity for COc1ccc(-c2nccc3c(-c4cccc(F)c4)c[nH]c23)c(OC)c1 came out at 12.97

Further cases:
Just so you know, measured Activity for Clc1ccc(-c2nccc3c(-c4ccccc4)c[nH]c23)cc1 came out at 39.69
